Reference for the values: ChEMBL document CHEMBL4699665

# TEST DETAILS: Inhibition of beta lactamase TEM-1 in Enterobacter cloacae assessed as decrease in enzyme activity using nitrocefin as substrate preincubated for 10 mins followed by substrate addition measured for 10 mins by fluorescence plate reader analysis
PROPERTY MEASURED: pIC50
One number for each entry, as −log10 of the molar value.

Below are worked cases with known answers.
{"RECORD SMILES": "O=C1N2CCC[C@H](C2)N1OS(=O)(=O)[O-].[Na+]", "EXPERIMENTAL VALUE": 6.29}
{"RECORD SMILES": "N#C[C@@H]1CC[C@@H]2CN1C(=O)N2OS(=O)(=O)[O-].[Na+]", "EXPERIMENTAL VALUE": 7.17}
{"RECORD SMILES": "O=C1N2C[C@@H](CC[C@H]2C(F)F)N1OS(=O)(=O)[O-].[Na+]", "EXPERIMENTAL VALUE": 6.68}
{"RECORD SMILES": "O=C1N2C[C@@H](CC[C@H]2SC(F)(F)F)N1OS(=O)(=O)[O-].[Na+]", "EXPERIMENTAL VALUE": 7.59}
{"RECORD SMILES": "O=C1N2C[C@@H](CC[C@H]2C(F)(F)c2nccs2)N1OS(=O)(=O)[O-].[Na+]", "EXPERIMENTAL VALUE": 6.67}
{"RECORD SMILES": "O=C1N2C[C@@H](CC[C@H]2Cl)N1OS(=O)(=O)[O-].[Na+]", "EXPERIMENTAL VALUE": 9.00}

Look up pIC50 for the entries below, preserving their order.
1. O=C1N2C[C@@H](CC[C@H]2F)N1OS(=O)(=O)[O-].[Na+]
2. CC(F)(F)[C@@H]1CC[C@@H]2CN1C(=O)N2OS(=O)(=O)[O-].[Na+]
3. O=C1N2C[C@@H](CC[C@H]2COC(F)(F)F)N1OS(=O)(=O)[O-].[Na+]

1. 9.00
2. 6.57
3. 6.93

###

# TEST DETAILS: Inhibition of beta lactamase AmpC in Enterobacter cloacae assessed as decrease in enzyme activity using nitrocefin as substrate preincubated for 10 mins followed by substrate addition measured for 10 mins by fluorescence plate reader analysis
PROPERTY MEASURED: IC50 (nM)
Give bare numbers, in nM.

{"RECORD SMILES": "O=C1N2C[C@@H](CC[C@H]2C(F)(F)F)N1OS(=O)(=O)[O-].[Na+]", "UNIT OF MEASURE": "nM", "IC50": 4}

Look up IC50 for the entries below, preserving their order.
1. O=C1N2C[C@@H](CC[C@H]2C(F)(F)c2nccs2)N1OS(=O)(=O)[O-].[Na+]
2. O=C1N2C[C@@H](CC[C@H]2CCl)N1OS(=O)(=O)[O-].[Na+]
3. O=C1N2C[C@@H](CC[C@H]2CF)N1OS(=O)(=O)[O-].[Na+]
4. O=C1N2C[C@@H](CC[C@H]2Cl)N1OS(=O)(=O)[O-].[Na+]
5. O=C1N2C[C@@H](CC[C@H]2C(F)F)N1OS(=O)(=O)[O-].[Na+]
6. O=C1N2C[C@@H](CC[C@H]2COC(F)(F)F)N1OS(=O)(=O)[O-].[Na+]

[1, 26, 304, 4, 35, 23]

###

# TEST DETAILS: Inhibition of beta lactamase CTXM-15 in Enterobacter cloacae assessed as decrease in enzyme activity using nitrocefin as substrate preincubated for 10 mins followed by substrate addition measured for 10 mins by fluorescence plate reader analysis
Labelling: IC50 reported below 100 nM becomes class 1; at or above becomes class 0.

Is 100 nM strictly greater than the molecule's reported IC50? molecule: O=C1N2C[C@@H](CC[C@H]2COC(F)(F)F)N1OS(=O)(=O)[O-].[Na+]
class 1

###

# TEST DETAILS: Plasma protein binding in human assessed as fraction unbound by LC-MS/MS analysis
# Type: ADME, cell-free
PROPERTY MEASURED: fraction unbound

For the compound O=C1N2C[C@@H](CC[C@H]2F)N1OS(=O)(=O)[O-].[Na+] , give its reported fraction unbound.
> 0.93

###

Please respond with reported pIC50 for every item in the list.
# TEST DETAILS: Inhibition of bacteria beta lactamase OXA-23 assessed as decrease in enzyme activity using nitrocefin as substrate preincubated for 10 mins followed by substrate addition measured for 10 mins by fluorescence plate reader analysis
Give bare numbers, as −log10 of the molar value.

{"RECORD SMILES": "O=C1N2C[C@@H](CC[C@H]2F)N1OS(=O)(=O)[O-].[Na+]", "pIC50": 7.30}
{"RECORD SMILES": "N#C[C@@H]1CC[C@@H]2CN1C(=O)N2OS(=O)(=O)[O-].[Na+]", "pIC50": 7.23}

Shift focus to the following entry.
For the molecule O=C1N2C[C@@H](CC[C@H]2C(F)(F)F)N1OS(=O)(=O)[O-].[Na+] , give its reported pIC50.
6.09

###

# TEST DETAILS: Intrinsic clearance in rat hepatocytes assessed per million cells
# Format: ADME, cell-based, Hepatocyte
# APPLIED CONDITIONS: read-out: CLH
PROPERTY MEASURED: hepatocyte CLint

For the molecule O=C1N2C[C@@H](CC[C@H]2F)N1OS(=O)(=O)[O-].[Na+] , give its reported hepatocyte CLint.
< 3.4 µL/min/1e6 cells

###

# SYSTEM UNDER TEST: Cytochrome P450 2C9 (Homo sapiens)
# Sequence (P11712 whole entry): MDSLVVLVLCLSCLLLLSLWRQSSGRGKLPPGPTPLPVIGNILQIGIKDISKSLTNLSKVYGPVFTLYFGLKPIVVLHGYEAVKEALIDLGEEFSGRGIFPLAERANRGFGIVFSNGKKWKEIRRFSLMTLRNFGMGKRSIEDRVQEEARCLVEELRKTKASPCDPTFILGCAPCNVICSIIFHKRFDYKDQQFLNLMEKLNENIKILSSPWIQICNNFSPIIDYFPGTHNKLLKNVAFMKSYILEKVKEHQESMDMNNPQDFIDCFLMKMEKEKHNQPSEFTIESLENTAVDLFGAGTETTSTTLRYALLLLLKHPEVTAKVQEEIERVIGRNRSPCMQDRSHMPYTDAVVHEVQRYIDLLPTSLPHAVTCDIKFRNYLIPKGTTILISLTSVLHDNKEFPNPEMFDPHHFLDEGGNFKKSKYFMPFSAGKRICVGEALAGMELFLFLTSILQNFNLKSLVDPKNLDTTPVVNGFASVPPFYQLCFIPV
PROPERTY MEASURED: IC50

For the molecule O=C1N2C[C@@H](CC[C@H]2F)N1OS(=O)(=O)[O-].[Na+] , give its reported IC50.
> 50 µM

###

# TEST DETAILS: Stability in rat plasma assessed as parent compound remaining after 1 hr
# Type: ADME, cell-free
# APPLIED CONDITIONS: read-out: Stabilty
PROPERTY MEASURED: remaining at 1 h
Lab note: write values as number then unit, every time.

For the compound O=C1N2C[C@@H](CC[C@H]2F)N1OS(=O)(=O)[O-].[Na+] , give its reported remaining at 1 h.
55%

###

# SYSTEM UNDER TEST: Cytochrome P450 3A4 (Homo sapiens)
# Sequence (P08684 whole entry): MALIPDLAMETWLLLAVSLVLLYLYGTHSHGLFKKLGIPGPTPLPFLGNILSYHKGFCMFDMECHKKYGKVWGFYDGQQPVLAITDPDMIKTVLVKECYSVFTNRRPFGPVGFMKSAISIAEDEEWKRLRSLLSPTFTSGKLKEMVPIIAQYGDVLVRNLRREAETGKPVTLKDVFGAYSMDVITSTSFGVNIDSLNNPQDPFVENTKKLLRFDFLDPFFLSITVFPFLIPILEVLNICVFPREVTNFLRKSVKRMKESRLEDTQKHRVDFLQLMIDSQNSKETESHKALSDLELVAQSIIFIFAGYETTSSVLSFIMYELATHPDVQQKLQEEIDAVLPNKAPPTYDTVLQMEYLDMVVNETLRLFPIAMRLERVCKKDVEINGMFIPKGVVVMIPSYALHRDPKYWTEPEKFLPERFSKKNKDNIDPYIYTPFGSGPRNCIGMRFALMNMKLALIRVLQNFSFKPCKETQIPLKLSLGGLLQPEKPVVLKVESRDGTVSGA
PROPERTY MEASURED: IC50

For the compound O=C1N2C[C@@H](CC[C@H]2F)N1OS(=O)(=O)[O-].[Na+] , give its reported IC50.
> 50 µM

###

# TEST DETAILS: Stability in dog plasma assessed as parent compound remaining after 1 hr
# Type: ADME, cell-free, Canis lupus familiaris
# APPLIED CONDITIONS: read-out: Stabilty
PROPERTY MEASURED: remaining at 1 h (%)
Numbers only, in %.

For the compound O=C1N2C[C@@H](CC[C@H]2F)N1OS(=O)(=O)[O-].[Na+] , give its reported remaining at 1 h.
85

###

# TEST DETAILS: Inhibition of bacteria beta lactamase OXA-23 assessed as decrease in enzyme activity using nitrocefin as substrate preincubated for 10 mins followed by substrate addition measured for 10 mins by fluorescence plate reader analysis
PROPERTY MEASURED: IC50

{"RECORD SMILES": "O=C1N2C[C@@H](CC[C@H]2C(F)F)N1OS(=O)(=O)[O-].[Na+]", "IC50": "1600 nM"}
{"RECORD SMILES": "O=C1N2C[C@@H](CC[C@H]2COC(F)(F)F)N1OS(=O)(=O)[O-].[Na+]", "IC50": "> 3000 nM"}
{"RECORD SMILES": "NC(=O)[C@@H]1CC[C@@H]2CN1C(=O)N2OS(=O)(=O)O", "IC50": "> 3000 nM"}

Look up IC50 for the entries below, preserving their order.
1. O=C1N2C[C@@H](CC[C@H]2C(Cl)Cl)N1OS(=O)(=O)[O-].[Na+]
2. O=C1N2C[C@@H](CC[C@H]2C(F)(F)c2nccs2)N1OS(=O)(=O)[O-].[Na+]
3. O=C1N2CCC[C@H](C2)N1OS(=O)(=O)[O-].[Na+]
4. O=C1N2C[C@@H](CC[C@H]2CF)N1OS(=O)(=O)[O-].[Na+]
5. O=C1N2C[C@@H](CC[C@H]2SC(F)(F)F)N1OS(=O)(=O)[O-].[Na+]
6. O=C1N2C[C@@H](CC[C@H]2CCl)N1OS(=O)(=O)[O-].[Na+]

1. 1680 nM
2. > 3000 nM
3. > 3000 nM
4. > 3000 nM
5. 1320 nM
6. > 3000 nM

###

# TEST DETAILS: Clearance in rat at 1 mg/kg, iv
# Assay type: ADME, organism-based
# APPLIED CONDITIONS: in vivo
Please respond with reported clearance for every item in the list.
Give bare numbers, in mL/min/kg.

{"RECORD SMILES": "O=C1N2C[C@@H](CC[C@H]2F)N1OS(=O)(=O)[O-].[Na+]", "clearance / mL/min/kg": 40}

For the compound NC(=O)[C@@H]1CC[C@@H]2CN1C(=O)N2OS(=O)(=O)O , give its reported clearance.
59
